- System: EphB1
- methodDescription: EphB receptor specificity (% binding), Table 1
- settings: binding to EphB1
# binarize EphB Receptor Specificity (% Binding) B1: threshold 5% inclusive, high side Criterion met, low side Criterion not met

{"columns": ["compound", "qualitativeLabel"],
 "data": [
  ["CC[C@H](C)[C@H](NC(=O)[C@H](CCCNC(=N)N)NC(=O)[C@H](Cc1c[nH]c2ccccc12)NC(=O)[C@H](Cc1c[nH]cn1)NC(=O)[C@@H](N)CC(=O)O)C(=O)N[C@@H](CC(C)C)C(=O)N1CCC[C@H]1C(=O)N[C@@H](Cc1ccccc1)C(=O)N[C@@H](CO)C(=O)N[C@@H](CC(C)C)C(=O)N[C@@H](CO)C(=O)N[C@@H](CO)C(=O)O [compound 10]", "Criterion met"],
  ["CC[C@H](C)[C@H](NC(=O)[C@H](C)NC(=O)[C@H](Cc1ccccc1)NC(=O)[C@@H]1CCCN1C(=O)[C@H](CCC(=O)O)NC(=O)[C@@H](NC(=O)[C@@H](NC(=O)[C@H](Cc1c[nH]c2ccccc12)NC(=O)[C@H](Cc1c[nH]cn1)NC(=O)[C@@H](N)Cc1c[nH]c2ccccc12)[C@@H](C)O)[C@@H](C)CC)C(=O)N[C@H](C(=O)N[C@@H](CO)C(=O)O)[C@@H](C)O [compound 8]", "Criterion met"],
  ["CC[C@H](C)[C@H](NC(=O)[C@@H](NC(=O)[C@@H]1CCCN1C(=O)[C@@H](N)CC(N)=O)C(C)C)C(=O)NCC(=O)N1CCC[C@H]1C(=O)N[C@H](C(=O)N[C@@H](CCC(N)=O)C(=O)N[C@@H](CCCNC(=N)N)C(=O)N[C@@H](C)C(=O)N[C@@H](Cc1c[nH]c2ccccc12)C(=O)N[C@H](C(=O)O)[C@@H](C)O)[C@@H](C)CC [compound 27]", "Criterion not met"],
  ["CC[C@H](C)[C@H](NC(=O)[C@@H]1CCCN1C(=O)[C@H](Cc1c[nH]c2ccccc12)NC(=O)[C@H](Cc1c[nH]cn1)NC(=O)[C@@H](N)CO)C(=O)N[C@@H](CO)C(=O)N1CCC[C@H]1C(=O)N[C@@H](Cc1ccc(O)cc1)C(=O)N[C@@H](CO)C(=O)N[C@@H](CC(C)C)C(=O)N[C@@H](CC(C)C)C(=O)N[C@@H](CO)C(=O)O [compound 14]", "Criterion met"],
  ["CC(C)C[C@H](NC(=O)[C@H](C)NC(=O)[C@@H](N)CC(=O)O)C(=O)N[C@@H](CC(N)=O)C(=O)N[C@@H](CC(=O)O)C(=O)N[C@@H](Cc1c[nH]c2ccccc12)C(=O)N[C@@H](CC(C)C)C(=O)N[C@@H](CC(C)C)C(=O)N[C@@H](Cc1ccccc1)C(=O)N[C@@H](CCCNC(=N)N)C(=O)N1CCC[C@H]1C(=O)N[C@@H](Cc1c[nH]c2ccccc12)C(=O)O [compound 20]", "Criterion not met"]
]}
